Test system: ACHN renal
Assay: NCI tumour cell line growth inhibition, 48 h
This section presents molecules with their documented TGI values.

# molecule, TGI
measured = [
    ("NC(CCCCCP(=O)(c1ccccc1)C1C=CC=CC1)C(=O)O (stereo unspecified)", "> 100 µM"),
    ("CCOC(=O)Nc1[nH]cc(-c2ccccc2)c1C#N", "> 100 µM"),
    ("COc1cc2c(cc1OC)C(CC1=C(c3ccccc3)CN3CCc4cc(OC)c(OC)cc4C3C1)NCC2 (stereo unspecified)", "42.3 µM"),
    ("O=c1[nH]cnc2c1cnn2Cc1cn(CCCCO)nn1", "> 100 µM"),
    ("O=C1CCC2(c3ccc(Cl)cc3)Nc3ncccc3N12 (stereo unspecified)", "> 100 µM"),
    ("CC/C=C\\C[C@H](O)C/C=C1/C(=O)C(Cl)=C[C@@H]1C/C=C\\CCCC(=O)OC", "0.849 µM"),
]

---

Test system: OVCAR-3 ovarian
Experiment: NCI tumour cell line growth inhibition, 48 h
Where a SMILES comes first, the peptide text is derived from it. The star is where a group is joined. Boc = CC(C)(C)OC(=O)*; Bn = c1ccc(C*)cc1

# compound, comparative sign, TGI (µM)
measured = [
    ("COc1cccc(CC(C)=C(c2ccc(OCCN(C)C)cc2)c2ccc(OCCN(C)C)cc2)c1", "=", 3.42),
    ("Cn1c(I)c(C#CCO[Si](C)(C)C(C)(C)C)c(=O)[nH]c1=O", "=", 16.2),
    ("CC(=O)OC1COC(Oc2c(C)c3c4c(c2O)[C@@H](C)CC[C@@H]4[C@@H](C)C[C@H]3C=C(C)C)C(O)C1OC(C)=O (some centres undefined)", "=", 23.3),
    ("CC(=O)c1ccccc1NP(=O)(c1ccccc1)c1ccccc1", ">", 100),
    ("CC1=C(C)CC2C(=O)N(c3cc(C(C)(C)C)ccc3C(C)(C)C)C(=O)C2C1 (centres undefined)", ">", 100),
    ("COc1cccc(C2CC(C)(O)Oc3cc4c(cc32)OCO4)c1O (centres undefined)", "=", 42.2),
    ("C=CCc1cccc2cc(C(=O)NCc3ccccc3)c(=N)oc12", "=", 58.6),
    ("COC(=O)C1=C(OC(=O)/C(=C/c2ccc(Cl)cc2)c2ccc(Cl)cc2)C(C(=O)OC)[C@@]2(O)[C@@H](C(=O)OC)[C@H](C)C[C@@H]1[C@@H]2C(=O)OC (some centres undefined)", ">", 100),
    ("O=C(/C=C/c1ccccc1)Oc1cccc(O)c1", ">", 100),
    ("Nc1nn2cc(F)cnc2c1C(=O)Nc1cncc(F)c1N1CCC(C(=O)N2CCN(C3COC3)CC2)CC1", "=", 26),
    ("O=c1oc2ccc3ccccc3c2cc1-c1nc2ccccc2s1", ">", 100),
    ("N#CN/C(N)=N/CO", ">", 100),
    ("CCOC(=O)c1cnc2c(ccc3[nH]n(C)nc32)c1=O", ">", 100),
    ("Cc1n(Cc2ccccc2)c2c([n+]1C)C(=O)c1ccccc1C2=O", "=", 0.0771),
    ("[N-]=[N+]=Nc1c([N+](=O)[O-])c(=O)n(-c2ccccc2)c2ccccc12", "=", 22.7),
    ("CCN1CCN(C(=O)[C@@]2(C)CC[C@]3(C)CC[C@]4(C)C(=CC(=O)[C@@H]5[C@@]6(C)CC[C@H](OC7C[C@@H](O)[C@@H](O)C(C)O7)C(C)(C)[C@@H]6CC[C@]54C)[C@@H]3C2)CC1 (some centres undefined)", "=", 16.7),
    ("CN(C)c1ccc(/C=c2/c3ccccc3n3c2c2c([n+]3C)CCCC2)cc1", "=", 1.17),
    ("O=C(Nc1ccc2ncccc2c1)Nc1ccc2ncccc2c1", ">", 100),
    ("O=c1[nH]cnc2c1cnn2Cc1cn(CCCCO)nn1", ">", 100),
    ("COc1ccc(C2SC(N)=Nc3c2c(C)nn3C(=O)c2ccncc2)cc1OC (centres undefined)", ">", 10),
    ("CC1=C(C(=O)Nc2ccc(F)c(Cl)c2)C(c2ccccc2O)NC(=S)N1 (centres undefined)", "=", 42.6),
    ("NC(=S)N/N=C/C(=O)O", ">", 100),
    ("CC1(C)C(C#N)C1C1=C(N2CCOCC2)[C@]2(C)C(OC(=O)c3ccccc3)CC[C@@H]2C1 (some centres undefined)", ">", 100),
    ("COc1cc(C(=O)N2CCN(C=O)C2=S)cc(OC)c1OC", "=", 33.6),
    ("Cc1ccnc2[nH]c(-c3ccc4ccccc4c3)cc(=O)c12", "=", 4.51),
    ("COC(=O)C(CC(C)C)NC(=O)C(C)NC(=O)C(Cc1ccc(OCc2ccccc2)cc1)NC(=O)C(COCc1ccccc1)NC(=O)OC(C)(C)C (centres undefined) (Boc-S(Bn)Y(Bn)AL-OMe; configuration not given here)", ">", 100),
    ("CCN(CC)CCCN1CCc2c([nH]c3ccccc23)C1c1cccnc1 (centres undefined)", ">", 100),
    ("CCOC(=O)C(C#N)C1=CC(=O)C(=O)c2ccc(OC)cc21 (centres undefined)", "=", 47.5),
    ("O=C1CCC2(c3ccc(Cl)cc3)Nc3ncccc3N12 (centres undefined)", ">", 100),
]
